Reported inhibition at 1 µM values for the following compounds.
molecular target: JAK1 (Homo sapiens, UniProt P23458); construct: purchased Invitrogen; assay: JAK1 enzyme inhibition test (LANCE method); assay type: biochemical; conditions: test compound 1 μM; read-out: Inhibitory rate (%) JAK1 1 μM
Sequence (P23458 whole entry): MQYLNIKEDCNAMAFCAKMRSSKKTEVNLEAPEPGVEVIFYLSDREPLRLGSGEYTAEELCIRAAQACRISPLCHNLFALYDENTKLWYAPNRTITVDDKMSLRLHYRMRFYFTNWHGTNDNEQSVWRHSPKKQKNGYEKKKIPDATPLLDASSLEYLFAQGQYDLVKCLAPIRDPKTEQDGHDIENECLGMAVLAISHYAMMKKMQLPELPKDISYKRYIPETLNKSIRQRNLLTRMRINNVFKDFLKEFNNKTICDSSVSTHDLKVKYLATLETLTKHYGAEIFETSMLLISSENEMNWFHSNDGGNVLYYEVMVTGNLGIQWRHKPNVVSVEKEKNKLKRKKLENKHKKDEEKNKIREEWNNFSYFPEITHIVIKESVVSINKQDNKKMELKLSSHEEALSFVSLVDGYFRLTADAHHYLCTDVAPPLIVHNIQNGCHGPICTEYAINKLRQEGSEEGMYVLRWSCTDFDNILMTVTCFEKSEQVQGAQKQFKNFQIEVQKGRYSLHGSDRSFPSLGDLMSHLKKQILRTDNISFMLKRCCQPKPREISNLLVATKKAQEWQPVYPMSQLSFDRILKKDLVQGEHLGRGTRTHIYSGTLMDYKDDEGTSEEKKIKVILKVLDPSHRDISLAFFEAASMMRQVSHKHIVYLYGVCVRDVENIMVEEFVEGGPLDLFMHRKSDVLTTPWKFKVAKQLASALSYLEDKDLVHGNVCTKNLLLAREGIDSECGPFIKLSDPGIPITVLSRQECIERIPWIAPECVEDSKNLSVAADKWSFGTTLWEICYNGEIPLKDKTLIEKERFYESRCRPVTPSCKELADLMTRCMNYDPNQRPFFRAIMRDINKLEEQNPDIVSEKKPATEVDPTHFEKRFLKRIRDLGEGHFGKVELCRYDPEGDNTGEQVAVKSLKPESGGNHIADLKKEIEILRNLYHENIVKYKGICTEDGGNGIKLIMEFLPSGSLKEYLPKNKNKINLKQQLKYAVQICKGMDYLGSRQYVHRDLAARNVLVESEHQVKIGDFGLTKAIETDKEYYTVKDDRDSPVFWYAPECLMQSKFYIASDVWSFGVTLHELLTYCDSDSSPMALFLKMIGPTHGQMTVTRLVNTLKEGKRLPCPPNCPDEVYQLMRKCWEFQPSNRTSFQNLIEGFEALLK
Experimental Endpoint: inhibition at 1 µM (%)

NC(=O)c1cc(-c2cn(C3CCCC3)c3c(C(N)=O)c[nH]c(=O)c23)cs1; 69
N#Cc1cccc(F)c1-n1nc(-c2ccc(N3CCOCC3)nc2)c2c(=O)[nH]ccc21; 90
N#Cc1c[nH]c(=O)c2c(-c3csc(C(N)=O)c3)nn(C3CCCC3)c12; 96
CC(C)Cn1cc(-c2cn(C3CCCC3)c3c(C#N)c[nH]c(=O)c23)cn1; 56
